# GI50 annotations
Tested on: SF-539
Experiment Notes: cells
Run Parameters: Homo sapiens, SF-539, 48 h
Don't forget the unit after the value.

In the examples that follow, each entry is paired with its recorded GI50.
1. COc1cc(/C=C/C(=O)c2ccccc2)ccc1Oc1nc(Nc2ccc(F)cc2)nc(N(C)C)n1 [21a]; 13.8 µM
2. CN(C)c1nc(NCCNS(=O)(=O)c2ccc(C(=O)/C=C/c3ccc(Cl)cc3)cc2)nc(Nc2ccc(F)cc2)n1 [24e]; 10.1 µM
3. Cc1ccc(C2CC(c3ccc(Nc4nc(NCCO)nc(Nc5ccc(Cl)cc5)n4)cc3)=Nc3c(N)nc(N)nc3N2)cc1 (stereo not drawn) [33b]; 1.57 µM
4. CN(C)c1nc(NCCNS(=O)(=O)c2ccc(C(=O)/C=C/c3ccccc3)cc2)nc(N2CCOCC2)n1 [23a]; 11.1 µM
5. Cc1ccc(C2CC(c3ccc(S(=O)(=O)NCCNc4nc(Nc5ccc(F)cc5)nc(N(C)C)n4)cc3)=Nc3c(N)nc(N)nc3N2)cc1 (stereo not drawn) [31b]; 3.29 µM
6. CN(C)c1nc(NCCNS(=O)(=O)c2ccc(C3=Nc4c(N)nc(N)nc4NC(c4ccc(Cl)cc4)C3)cc2)nc(Nc2ccc(F)cc2)n1 (stereo not drawn) [31e]; 3.3 µM

Incoming: Look up GI50: Cc1ccc(/C=C/C(=O)c2ccc(S(=O)(=O)NCCNc3nc(Nc4ccc(F)cc4)nc(N(C)C)n3)cc2)cc1 [24b]
Outgoing: 13 µM

Incoming: # query: GI50 of entry COc1cc(/C=C/C(=O)c2cc(OC)c(OC)c(OC)c2)ccc1Oc1nc(NCCO)nc(N2CCOCC2)n1 [20d]
Outgoing: 1.88 µM

Incoming: Entry CN(C)c1nc(NCCNS(=O)(=O)c2ccc(C(=O)/C=C/c3ccc(Cl)cc3)cc2)nc(N2CCOCC2)n1 [23e] : reported GI50 = ?
Outgoing: 14.7 µM

Incoming: Record request: GI50 value, item CN(C)c1nc(NCCNS(=O)(=O)c2ccc(C(=O)/C=C/c3ccc(C(F)(F)F)cc3)cc2)nc(N2CCOCC2)n1 [23g]
Outgoing: 13 µM

Incoming: I would be grateful if you could share the reported GI50 for CN(C)c1nc(NCCNS(=O)(=O)c2ccc(C3=Nc4c(N)nc(N)nc4NC(c4ccccc4)C3)cc2)nc(Nc2ccc(F)cc2)n1 (stereo not drawn) [31a] .
Outgoing: 12 µM

* * *

List of GI50 tested on HOP-62.
Report as a plain number; the unit µM is understood.

1) CN(C)c1nc(NCCNS(=O)(=O)c2ccc(C(=O)/C=C/c3ccc(F)cc3)cc2)nc(Nc2ccc(F)cc2)n1 [24f]; 8.39

Incoming: Field: GI50 (HOP-62). Entry: CN(C)c1nc(NCCNS(=O)(=O)c2ccc(C(=O)/C=C/c3ccc(Cl)cc3)cc2)nc(N2CCOCC2)n1 [23e]
Outgoing: 17.5

Incoming: Query for HOP-62: what GI50 does the record show for COc1cc(/C=C/C(=O)c2ccccc2)ccc1Oc1nc(Nc2ccc(F)cc2)nc(N(C)C)n1 [21a] ?
Outgoing: 26.6

Incoming: Lab request: please report GI50 under test system HOP-62 for COc1cc(/C=C/C(=O)c2ccc(C)cc2)ccc1Oc1nc(NCCO)nc(N2CCOCC2)n1 [20b]
Outgoing: 16.6

Incoming: Notebook: pull reported GI50 for HOP-62, entry COc1ccc(/C=C/C(=O)c2ccc(S(=O)(=O)NCCNc3nc(Nc4ccc(F)cc4)nc(N(C)C)n3)cc2)cc1 [24c]
Outgoing: 17.1

Incoming: // fetch HOP-62 GI50 for COc1cc(/C=C/C(=O)c2ccc(S(=O)(=O)NCCNc3nc(N(C)C)nc(N4CCOCC4)n3)cc2)cc(OC)c1OC [23d]
Outgoing: 2.66

The measurements presented in this section are drawn from paper PMC11012124.
